Molecular target: mutant MGL (Homo sapiens, UniProt Q99685, L169S/L176S)
Sequence (Q99685 whole entry L169S/L176S): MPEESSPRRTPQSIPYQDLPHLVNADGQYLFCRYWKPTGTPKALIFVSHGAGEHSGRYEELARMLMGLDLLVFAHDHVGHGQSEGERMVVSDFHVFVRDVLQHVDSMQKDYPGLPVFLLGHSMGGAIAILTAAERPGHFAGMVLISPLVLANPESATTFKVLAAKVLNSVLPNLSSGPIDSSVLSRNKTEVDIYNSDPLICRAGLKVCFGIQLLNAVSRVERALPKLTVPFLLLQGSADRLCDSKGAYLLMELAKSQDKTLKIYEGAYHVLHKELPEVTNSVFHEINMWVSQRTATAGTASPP
Assay: MGL ThermoFluor assay - mutant
Assay type: binding
Settings: ThermoFluor concentration-response, read-out: MGL mutant ThermoFluor Kd
Please provide measured pKd for the entries that follow.
Entry type: numeric. Quantity: pKd, the -log10 of concentration in molar units.

Need pKd of O=C(c1nccs1)N1CCN(C2CN(C(=O)c3sc4cc(F)ccc4c3C3CCC3)C2)CC1 , thanks.
9.00

Report pKd for O=C(c1ccc(OCc2ccc(Cl)s2)cc1)N1CC(N2CCN(C(=O)C(F)(F)F)CC2)C1 please.
6.24

Recorded pKd of O=C(c1ccc2c(c1)CCN2C(=O)C1CC1)N1CC(N2CCN(C(=O)c3nccs3)CC2)C1 , please.
7.40

What value of measured pKd is listed for O=C(c1ccccc1)N1CCN(C2CN(C(=O)c3ccc(F)c(Cc4ccc(C(F)(F)F)cc4)c3)C2)CC1 ?
5.68

For the compound CCCCC/C=C\C/C=C\CCCCCCCC(=O)N1CC(N2CCN(C(=O)c3nccs3)CC2)C1 , what pKd is on record?
6.76

Would you mind telling me what pKd value was observed for Cn1ccnc1C(=O)N1CCN(C2CN(C(=O)c3ccc(C4CCCCC4)cc3)C2)CC1 ?
5.60

// query pKd value for entry O=C(c1ccc(COc2cccc(Cl)c2)cc1)N1CC(N2CCN(C(=O)c3cscn3)CC2)C1
7.36

Looking for the measured pKd of O=C(c1ccc(-c2ccccc2)cc1)N1CC(N2CCN(C(=O)c3cccs3)CC2)C1 , can you help?
8.52

So what's the measured pKd for this one? CN(c1ccccc1)c1ccc(C(=O)N2CC(N3CCN(C(=O)c4ccccc4)CC3)C2)cc1
7.62

pKd lookup needed for O=C(c1nn(-c2ccc(Cl)cc2Cl)c2c1CSC/C2=C\c1ccc(F)cc1)N1CC(N2CCN(C(=O)C(F)(F)F)CC2)C1 , thanks.
6.64

For the compound shown here, Cn1cc(I)c2ccc(C(=O)N3CC(N4CCN(C(=O)c5nccs5)CC4)C3)cc21 , give the reported pKd.
8.10

For O=C(c1cncc(-c2ccccc2)c1)N1CC(N2CCN(C(=O)c3cscn3)CC2)C1 , what is its reported pKd?
4.52

Entry under review: O=C(c1ccccc1)N1CCN(C2CN(C(=O)c3cccnc3Oc3ccc(Cl)cc3)C2)CC1 . Reported pKd?
5.30

Request the reported pKd associated with O=C(c1ccccc1)N1CCN(C2CN(C(=O)c3sc4ccc(Cl)cc4c3C(F)(F)F)C2)CC1
7.23

Can you look up the measured pKd of O=C(c1ccc(-c2ccccc2)cc1)N1CCN(C2CN(C(=O)c3cc[nH]c3)C2)CC1 for me?
6.20

Consider the compound O=C(c1ccc(CSc2cccc(Cl)c2)cc1)N1CC(N2CCN(C(=O)c3cscn3)CC2)C1 and give its measured pKd.
7.09

---

Target: mutant MGL (Homo sapiens, UniProt Q99685, L169S/L176S)
Assay: MGL ThermoFluor assay - mutant
Type: binding
Settings: ThermoFluor thermal stability binding assay, read-out: MGL mutant ThermoFluor Kd
recorded endpoint: Kd (nM)
Note: unit nM is implicit; provide only the numeric part.

Lab note: need Kd with mutant MGL (Homo sapiens, UniProt Q99685, L169S/L176S) for entry O=C(c1ccc(OCc2cncc(Cl)c2)cc1)N1CC(N2CCN(C(=O)c3nccs3)CC2)C1 , please look it up.
66

Notebook: pull reported Kd for mutant MGL (Homo sapiens, UniProt Q99685, L169S/L176S), entry O=C(c1ccccc1)N1CCc2cccc(C(=O)N3CC(N4CCN(C(=O)c5nccs5)CC4)C3)c2C1
33300

So what Kd did O=C(c1ccc(-c2cccc(C(F)(F)F)c2)c(Cl)c1)N1CC(N2CCN(C(=O)c3cscn3)CC2)C1 get with mutant MGL (Homo sapiens, UniProt Q99685, L169S/L176S)?
6

Record COc1cc(C(=O)N2CC(N3CCN(C(=O)c4ccccc4)CC3)C2)ccc1-c1ccc(Cl)c(C(F)(F)F)c1 : what is its Kd with mutant MGL (Homo sapiens, UniProt Q99685, L169S/L176S)?
10

Entry O=C(c1ccc2nc(-c3cccc(F)c3)sc2c1)N1CC(N2CCN(C(=O)c3nccs3)CC2)C1 , system mutant MGL (Homo sapiens, UniProt Q99685, L169S/L176S): what Kd was measured?
16

Give recorded Kd with mutant MGL (Homo sapiens, UniProt Q99685, L169S/L176S) for the following compound: O=C(c1ccc(-c2cccc(C(F)(F)F)c2)cc1)N1CCN(C2CN(C(=O)c3cocn3)C2)CC1
20

Short answer please: Kd, mutant MGL (Homo sapiens, UniProt Q99685, L169S/L176S), entry CC(C)(C)OC(=O)N1CCc2cccc(C(=O)N3CC(N4CCN(C(=O)c5cscn5)CC4)C3)c2C1
2630

API: value(readout= Kd, system= mutant MGL (Homo sapiens, UniProt Q99685, L169S/L176S), query= CS(=O)(=O)N1CCCc2cc(C(=O)N3CC(N4CCN(C(=O)c5cscn5)CC4)C3)ccc21 )
2400
